- System: acetylated tubulin (Lys40) in HeLa cells
- procedure_details: Acetylated α-tubulin measurement in vitro (immunocytochemistry)
- Type: cell-based
- test_conditions: Homo sapiens, 6 hours incubation, acetylated tubulin (Lys40) by immunocytochemistry, read-out: IC50 (Tubulin deacetylation)
Would you mind telling me the reported IC50 of each entry?

Cn1ncc2c(SCC(=O)c3ccc(CNS(C)(=O)=O)s3)ncnc21    1000 to 3330 nM

Please give IC50, item by item, for the list that follows.
1. CNCC(=O)NCc1ccc(C(=O)CSc2nc(C)nc3ccc(OC)cc23)s1
2. Cc1nc(SCC(=O)c2ccc(CNC(=O)CO)s2)c2cc(Cl)c(F)cc2n1

1. 100 to 500 nM
2. 100 to 500 nM

Hey, quick one: what's IC50 for each of these?
1. Cn1ncc2c(SCC(=O)c3ccc(CNC(=O)C(C)(C)C)s3)nc(C(F)(F)F)nc21
2. Cc1nc(SCC(=O)c2ccc(CNC(=O)CO)s2)c2cc(N3CCCCC3)ccc2n1

1. 100 to 500 nM
2. ≤ 100 nM

Could you report IC50 for every entry in the following list?
1. COc1ccc2nc(C)nc(SCC(=O)c3ccc(CNC(=O)N(C)C)s3)c2c1
2. O=C(CSc1nc(C(F)(F)F)nc2ncccc12)c1ccc(CN2CCOCC2=O)s1
3. Cn1ncc2c(SCC(=O)c3ccc(CN4CCCC4=O)s3)ncnc21

100 to 500 nM
100 to 500 nM
> 3330 nM

Request - read-out IC50 | tested on acetylated tubulin (Lys40) in HeLa cells | compound Cn1ncc2c(SCC(=O)c3cc(F)c(CNC(=O)C(C)(C)C)s3)ncnc21
1000 to 3330 nM
